# assayName: Inhibition of human recombinant Glutaminase
pIC50: −log10 of the molar value.
measuredAttribute: pIC50

Recorded pIC50 for CN(C)c1ccc(C2Nc3ccc4ccccc4c3C3=C2C(=O)CC(C)(C)C3)cc1Br (stereo unspecified) , please?
~5.03

----------
# measurementTarget: Glutaminase kidney isoform, mitochondrial (Homo sapiens)
# Sequence (O94925 whole entry, canonical isoform): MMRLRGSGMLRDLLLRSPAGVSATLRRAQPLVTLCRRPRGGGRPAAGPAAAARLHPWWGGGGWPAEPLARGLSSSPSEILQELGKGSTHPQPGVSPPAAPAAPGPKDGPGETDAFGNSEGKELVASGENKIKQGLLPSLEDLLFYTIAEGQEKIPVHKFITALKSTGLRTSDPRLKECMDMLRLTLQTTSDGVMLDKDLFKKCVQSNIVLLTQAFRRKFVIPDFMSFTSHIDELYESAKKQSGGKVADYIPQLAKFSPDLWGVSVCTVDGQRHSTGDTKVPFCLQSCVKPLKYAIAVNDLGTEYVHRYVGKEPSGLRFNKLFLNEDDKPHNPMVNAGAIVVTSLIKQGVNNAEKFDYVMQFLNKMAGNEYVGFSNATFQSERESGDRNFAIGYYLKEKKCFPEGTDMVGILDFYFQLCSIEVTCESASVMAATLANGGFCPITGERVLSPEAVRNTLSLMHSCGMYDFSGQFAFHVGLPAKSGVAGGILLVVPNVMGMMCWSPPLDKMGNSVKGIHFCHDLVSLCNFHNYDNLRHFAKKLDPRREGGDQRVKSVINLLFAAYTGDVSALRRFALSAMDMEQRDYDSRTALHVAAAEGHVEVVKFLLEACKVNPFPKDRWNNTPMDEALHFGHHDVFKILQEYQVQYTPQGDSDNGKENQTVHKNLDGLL
# assayName: Inhibition of C-terminal His-tagged human recombinant KGA transformed in Escherichia coli BL21 DE3 at pH 7.4 incubated for 3 hrs
measuredAttribute: pIC50
Give bare numbers, as −log10 of the molar value.

Recorded pIC50 for O=c1c2ccccc2[se]n1CCCCCCn1[se]c2ccccc2c1=O , please?
6.70

----------
# assayName: Inhibition of human Glutaminase
Give IC50 for every item shown.
Numbers only, in µM.

| compound | IC50 (µM) |
| --- | --- |
| COc1ccc2c(c[n+](C)c3c4cc5c(cc4ccc23)OCO5)c1OC [CHELERYTHRINE CHLORIDE] | 0.03 |
| O=c1c2ccccc2[se]n1-c1ccccc1 [EBSELEN] | 0.009 |

Let us examine a further case.
Recorded IC50 for CN1CCc2cccc3c2[C@H]1Cc1ccc(O)c(O)c1-3 [APOMORPHINE] , please?
0.6
